Source listed as patent US20110229570A1.

- PROTOCOL: Hardness of tablet (tablet hardness tester)
- Format: physicochemical
- CONDITIONS: 300 mg tablet, flat punch 10 mm, 1000 kg/punch
READOUT: Hardness, tablet obtained by compressing an excipient only (N)

{"columns": ["COMPOUND", "MEASURED_NUMBER"],
 "data": [
  ["OC[C@@H](O)[C@H](O)[C@@H](O)CO [Xylitol]", 12]
]}

[a] OC[C@@H](O)[C@@H](O)[C@H](O)[C@@H](O)CO [Sorbitol]
[b] OC[C@@H](O)[C@@H](O)[C@H](O)[C@H](O)CO [D-mannitol]
[c] OC[C@H]1O[C@@](CO)(O[C@H]2O[C@H](CO)[C@@H](O)[C@H](O)[C@H]2O)[C@@H](O)[C@@H]1O [Purified sucrose]
Qu. Rank the 3 compounds: largest Hardness, tablet obtained by compressing an excipient only first, smallest last. List the labels, following the order given in the request.
Ans. a, c, b
(a: 229 N, c: 41 N, b: 12 N)
